- Test system: HOP-92 NSCLC
- procedure-text: NCI-60 one-dose screen, 48 h (100 = growth as untreated, 0 = no growth, -100 = all killed)
- conditions: 10 µM unless noted
Compounds without any hit were thinned out: in the full panel of roughly 83,000, 20% have a hit.
Can you tell me growth for the items I'm about to list?
Give bare numbers, in %.

Consider the following illustrative entries.
CC(C)c1ccc(C(=O)Nc2sc3c(c2C(N)=O)CCC(=O)C3)cc1 | -32
NC(=O)c1ccc(-c2c3ccccc3cc3c2ccc2ccccc23)cc1 | 76.4
CCOC(=O)C#Cc1c(C(=O)OCC)nnn1Cc1ccc([N+](=O)[O-])cc1 | 40.6
O=C(Nc1nc2cc(C(=O)N3CCN(C(c4ccccc4)c4ccccc4)CC3)ccc2o1)c1ccc(NC2CCCCC2)c([N+](=O)[O-])c1 | 73.3

Here is another compound to look at.
Q) Form field - read-out: growth; system: HOP-92 NSCLC; submitted item: CCCCNCCCCCNc1cc(OC)cc2cccnc12
A) 49.2

---

- System: U251 CNS
- procedure-text: NCI-60 one-dose screen, 48 h (100 = growth as untreated, 0 = no growth, -100 = all killed)
- conditions: 10 µM unless noted
This is part of a sample that, as a whole, favours compounds with a hit. Of some 83,000 tested, about 20% had one in any assay.
recorded-endpoint: growth (%)
Give bare numbers, in %.

COc1ccc(-c2cc(-c3cccnc3)nc3sc4c(=O)[nH]c(-c5ccc(Cl)cc5)nc4c23)cc1OC | 82.7
CCOC(=O)n1cc(-c2nonc2-c2cn(C(=O)OCC)c3ccc(Br)cc23)c2ccccc21 | 89.8
O=C1C(=O)N(Cc2ccc(-c3ccccc3)cc2)c2ccc(OC(F)(F)F)cc21 | 20.9
Cn1cc(-c2nonc2-c2cn(C)c3ccccc23)c2ccccc21 | 18.8
CNC(=O)c1[nH]cc(-c2ccc(OC)cc2)c1-c1cc(OC)c2c(c1OC)OCO2 | 98.4

Provide each entry's growth from the list below.
1. Cc1cn(-c2cc(NC(=O)c3cccc(C#Cc4cccc5[nH]nc(N)c45)c3)cc(C(F)(F)F)c2)cn1
2. CCOC(=O)n1ccn(C)c1=S
3. Cc1csc(Nc2nc(-c3ccccn3)nc(C(Cl)(Cl)Cl)n2)n1
4. CN(c1cc2ncc(=O)[nH]c2cc1NC(N)=NCc1ccc(Cl)cc1)C1CCCCC1
5. COCCOc1cc2ncnc(N3CCN(c4ncc(S(=O)(=O)N5CCCCC5)cn4)CC3)c2cc1OCCOC
6. COC(=O)[C@]12CCC(C)(C)C[C@H]1[C@H]1/C(=N/OCCc3nn[nH]n3)C[C@@H]3[C@@]4(C)CC[C@H](OC(C)=O)C(C)(C)[C@@H]4CC[C@@]3(C)[C@]1(C)CC2
7. CC(=O)N1N=C(c2ccc(Nc3nc(Nc4ccccc4)nc(Nc4ccccc4)n3)cc2)CC1c1cccc([N+](=O)[O-])c1 (configuration not stated)

A)
43.7
100
62.2
-4.07
97.7
36.3
97.7

Provide growth for all items below, preserving their order.
1. O=C(/C=C/c1cn(-c2ccccc2)nc1-c1ccc(Cl)cc1)c1ccc(F)cc1
2. COc1ccc(Nc2ncc(Br)c(NCCCNC(=O)c3cccs3)n2)cc1
3. c1csc(-c2ccc(CNc3c4ccccc4nc4ccccc34)cc2)c1
4. COC(=O)c1c(C)nc(C)c2c1C(=O)C(Br)=C(NCc1ccccc1)C2=O
5. Nc1c(C(=O)Nc2ccncc2)sc2nc3c(cc12)C(O)CCC3 (configuration not stated)

A)
[76.6, 52.7, -72.7, 20.1, 91.6]

Below is a list of compounds. For each, state its recorded growth.
1. COc1ccc(Nc2nnc(-c3ccc(OC)c(OC)c3)o2)cc1
2. O=CN1N=C(c2cccc(Nc3ccnc4cc(Cl)ccc34)c2)CC1c1ccccc1 (configuration not stated)

A)
[93, 16.9]
